// data source = patent US9487528B2

molecular target: human neutrophil elastase (HNE) (Homo sapiens, UniProt P08246); experiment: HNE enzyme assay (human neutrophil elastase enzyme activity, fluorogenic peptide substrate); settings: human leukocyte elastase 0.00072 U/mL; MeOSuc-Ala-Ala-Pro-Val-AMC 100 μM; 25° C., 30 minutes; at least two separate experiments; read-out: HNE inhibition (IC50 values)
Sequence (P08246 30-267): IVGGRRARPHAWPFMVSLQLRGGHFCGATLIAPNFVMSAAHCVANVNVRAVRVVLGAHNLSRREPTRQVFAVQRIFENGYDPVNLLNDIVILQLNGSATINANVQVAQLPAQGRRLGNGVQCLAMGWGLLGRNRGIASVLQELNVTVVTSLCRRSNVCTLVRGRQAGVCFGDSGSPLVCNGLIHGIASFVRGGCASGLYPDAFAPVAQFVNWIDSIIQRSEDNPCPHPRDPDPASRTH
Measurement Type: IC50

Enquiry: Form field: reported IC50 of CC1=C(C#N)[C@@H](c2ccc(C#N)cc2C(O)CO)n2c(n[nH]c2=O)N1c1cccc(C(F)(F)F)c1 (single isomer, unassigned) [Example 35a]
Return: < 20 nM

Enquiry: Form field: reported IC50 of CC1=C(C#N)[C@@H](c2ccc(C#N)cc2CCO)n2c(n[nH]c2=O)N1c1cccc(C(F)F)c1 (single isomer, unassigned) [Example 38b]
Return: 100 to 500 nM

Enquiry: Form field: reported IC50 of CC1=C(C#N)[C@@H](c2ccc(C#N)cc2CCO)n2c(n[nH]c2=O)N1c1cccc(C(F)F)c1 (single isomer, unassigned) [Example 38a]
Return: < 20 nM

Enquiry: Form field: reported IC50 of CC1=C(C#N)[C@@H](c2ccc(C#N)cc2CCS(C)(=O)=O)n2c(n[nH]c2=O)N1c1cccc(C(F)(F)F)c1
Return: < 20 nM

Enquiry: Form field: reported IC50 of COCCOc1cc(C#N)ccc1[C@@H]1C(C(=O)OC)=C(C)N(c2cccc(C(F)(F)F)c2)c2n[nH]c(=O)n21 (single isomer, unassigned) [Example 34a]
Return: < 20 nM

----------
Listed below: pIC50 values for each entry.
target: human neutrophil elastase (HNE) (Homo sapiens); construct: purchased Sigma E8140; assay: HNE enzyme assay (human neutrophil elastase enzyme activity, fluorogenic peptide substrate); assay type: biochemical; conditions: human leukocyte elastase 0.00072 U/mL; MeOSuc-Ala-Ala-Pro-Val-AMC 100 μM; 25° C., 30 minutes; at least two separate experiments; read-out: HNE inhibition (IC50 values)
pIC50: −log10 of the molar value.

Here are 5 molecules together with their reported answers.
CC1=C(C#N)C(c2ccc(C#N)cc2C(O)CO)n2c(n[nH]c2=O)N1c1cccc(C(F)F)c1 (single isomer, unassigned) [Example 39b] : 6.30 to 7.00
CC1=C(C#N)[C@@H](c2ccc(C#N)cc2C(O)CO)n2c(n[nH]c2=O)N1c1cccc(C(F)F)c1 (single isomer, unassigned) [Example 39a] : > 7.70
COC(=O)C1=C(C)N(c2cccc(C(F)(F)F)c2)c2n[nH]c(=O)n2[C@H]1c1ccc(C#N)cc1OC (racemic) [Example 33b] : 7.00 to 7.70
CC1=C(C#N)[C@@H](c2ccc(C#N)cc2CCO)n2c(n[nH]c2=O)N1c1cccc(C(F)(F)F)c1 [Example 36] : > 7.70
COCCOc1cc(C#N)ccc1[C@@H]1C(C(=O)OC)=C(C)N(c2cccc(C(F)(F)F)c2)c2n[nH]c(=O)n21 (single isomer, unassigned) [Example 34b] : 7.00 to 7.70

Now turn to the next molecule.
Enquiry: Form field: reported pIC50 of CC1=C(C#N)[C@@H](c2ccc(C#N)cc2C(O)CO)n2c(n[nH]c2=O)N1c1cccc(C(F)F)c1 (mixture of isomers) [Example 39d]
Return: 7.00 to 7.70
